# RUN DESCRIPTION: Stabilisation of amidines in aqueous solution by alkane polyols

>  <COMPOUND>
OCCCCCCCO [1,7-heptanediol]

>  <Stabilises Amidines?>
Yes

$$$$
>  <COMPOUND>
CCCCCCC(O)CO (centres unmarked) [1,2-octanediol]

>  <Stabilises Amidines?>
Yes

$$$$
>  <COMPOUND>
CCCCC(O)CO (centres unmarked) [1,2-hexanediol]

>  <Stabilises Amidines?>
Yes

$$$$
>  <COMPOUND>
CCCC(O)CO (centres unmarked) [1,2 Pentanediol]

>  <Stabilises Amidines?>
No

$$$$
>  <COMPOUND>
CCCCCC(O)CO (centres unmarked) [1,2-heptanediol]

>  <Stabilises Amidines?>
Yes

$$$$
>  <COMPOUND>
CC(O)CCC(C)O (centres unmarked) [2,5-hexanediol]

>  <Stabilises Amidines?>
No

$$$$
>  <COMPOUND>
OCCCCCCCCCCO [1,10-decanediol]

>  <Stabilises Amidines?>
No

$$$$
>  <COMPOUND>
OCCCCCCCCCO [1,9-nonanediol]

>  <Stabilises Amidines?>
Yes

$$$$

FYI, the data here is from patent US20040228820A1.
